# assay method text: Solubility screen assay (nephelometry)
# Type: physicochemical
# measurement conditions: PBS with 1% DMSO; read-out: Aqueous solubility
value type: solubility at 2 h (µM)
Write it as a number; the unit µM goes unstated.

I am curious: what solubility at 2 h value has been reported for CCN(CC)c1ccc(/C=C/c2cc[n+](CCCCCCCCCC[n+]3ccc(/C=C/c4ccc(N(CC)CC)cc4)c(C)c3)cc2C)cc1 ?
8.5

---

# assay method text: in vitro
# Assay type: in vitro ADME
# measurement conditions: human, plasma, 37°C, after 1 h, read-out: % remaining, plasma stability
value type: remaining at 1 h, 5 µM (%)
Give a bare numeral; the unit % is implied.

Entry CCN(CC)c1ccc(/C=C/c2cc[n+](CCCCCCCCCC[n+]3ccc(/C=C/c4ccc(N(CC)CC)cc4)c(C)c3)cc2C)cc1 [YAT2150] : reported remaining at 1 h, 5 µM = ?
100

---

# assay method text: Caco-2 permeability assay
# Type: in vitro ADME
# measurement conditions: human, Caco-2, Caco-2, B→A, 37°C
value type: Papp B→A at 120 min

# query: Papp B→A at 120 min of entry CCN(CC)c1ccc(/C=C/c2cc[n+](CCCCCCCCCC[n+]3ccc(/C=C/c4ccc(N(CC)CC)cc4)c(C)c3)cc2C)cc1 [YAT2150]
~10 ×10⁻⁶ cm/s

---

# assay method text: Human microsomal stability assay
# Format: in vitro ADME
# measurement conditions: human, microsomes, pH 7.4, human microsomes, 37°C; read-out: t1/2, microsomal stability
value type: half-life at 1 µM (h)
// units = h; emit number, no label

For CCN(CC)c1ccc(/C=C/c2cc[n+](CCCCCCCCCC[n+]3ccc(/C=C/c4ccc(N(CC)CC)cc4)c(C)c3)cc2C)cc1 [YAT2150] , what is its reported half-life at 1 µM?
1.33

---

# system name: CYP2D6 (Homo sapiens, UniProt P10635)
# Sequence (P10635 whole entry): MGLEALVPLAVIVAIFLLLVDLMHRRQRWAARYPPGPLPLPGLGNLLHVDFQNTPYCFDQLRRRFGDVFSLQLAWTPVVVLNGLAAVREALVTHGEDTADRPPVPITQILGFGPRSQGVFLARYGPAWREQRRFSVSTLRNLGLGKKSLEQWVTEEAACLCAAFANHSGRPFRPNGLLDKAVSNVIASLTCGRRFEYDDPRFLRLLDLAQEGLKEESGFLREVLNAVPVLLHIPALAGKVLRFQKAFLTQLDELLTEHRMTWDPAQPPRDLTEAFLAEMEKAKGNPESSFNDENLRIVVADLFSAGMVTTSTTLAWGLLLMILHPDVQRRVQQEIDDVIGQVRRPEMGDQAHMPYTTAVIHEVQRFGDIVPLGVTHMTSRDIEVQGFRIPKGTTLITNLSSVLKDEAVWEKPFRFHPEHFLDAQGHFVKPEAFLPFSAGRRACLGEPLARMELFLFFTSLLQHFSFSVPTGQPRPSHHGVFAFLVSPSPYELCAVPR
# assay method text: Cytochrome inhibition activity assay
# measurement conditions: human recombinant enzyme, 37°C
value type: pIC50
The meaning of pIC50 here: minus log10 of the concentration in molar units.

Endpoint output: pIC50 of CCN(CC)c1ccc(/C=C/c2cc[n+](CCCCCCCCCC[n+]3ccc(/C=C/c4ccc(N(CC)CC)cc4)c(C)c3)cc2C)cc1 . Value?
5.77

---

# assay method text: Caco-2 permeability assay
# Type: in vitro ADME
# measurement conditions: human, Caco-2, Caco-2, A→B, 37°C
value type: Papp A→B at 120 min

Which Papp A→B at 120 min is reported for this compound? CCN(CC)c1ccc(/C=C/c2cc[n+](CCCCCCCCCC[n+]3ccc(/C=C/c4ccc(N(CC)CC)cc4)c(C)c3)cc2C)cc1 [YAT2150]
> 20 ×10⁻⁶ cm/s

---

# assay method text: in vitro
# Type: cell-based
# measurement conditions: human umbilical vein endothelial cells, 48 h
Exercise: for every item that follows, state its recorded CC50.
Please reply with the bare figure in µM and do not write the unit itself.

So what's the measured CC50 for this one? COc1cc2c(cc1OC)C(=O)C(CC1CCN(CCCNc3c4c(nc5cc(Cl)ccc35)CCCC4)CC1)C2 (stereo not shown)
12.6

Same thing, different compound: CCN(CC)c1ccc(/C=C/c2cc[n+](CCCCCCCCCC[n+]3ccc(/C=C/c4ccc(N(CC)CC)cc4)c(C)c3)cc2C)cc1
3.4

# repeat for CC1=CC2Cc3nc4cc(Cl)ccc4c(NCCCCCCCCNc4c5c(nc6ccccc46)CCCC5)c3C(C1)C2 (stereo not shown)
4.9

Also check CC1=CC2Cc3nc4cc(Cl)ccc4c(NCCCN(C)CCCNc4c5c(nc6cc(Cl)ccc46)CCCC5)c3C(C1)C2 (stereo not shown)
6.3
